Attribution: patent US12344663

biological target: T1, human complement C3 (human, UniProt P01024 23-1663); test: SPR (Biacore T100), target immobilized, single cycle kinetics, 1:1 Langmuir fit
T1 construct: also called human C3; native human C3
T1 sequence (P01024 23-1663 limits assumed): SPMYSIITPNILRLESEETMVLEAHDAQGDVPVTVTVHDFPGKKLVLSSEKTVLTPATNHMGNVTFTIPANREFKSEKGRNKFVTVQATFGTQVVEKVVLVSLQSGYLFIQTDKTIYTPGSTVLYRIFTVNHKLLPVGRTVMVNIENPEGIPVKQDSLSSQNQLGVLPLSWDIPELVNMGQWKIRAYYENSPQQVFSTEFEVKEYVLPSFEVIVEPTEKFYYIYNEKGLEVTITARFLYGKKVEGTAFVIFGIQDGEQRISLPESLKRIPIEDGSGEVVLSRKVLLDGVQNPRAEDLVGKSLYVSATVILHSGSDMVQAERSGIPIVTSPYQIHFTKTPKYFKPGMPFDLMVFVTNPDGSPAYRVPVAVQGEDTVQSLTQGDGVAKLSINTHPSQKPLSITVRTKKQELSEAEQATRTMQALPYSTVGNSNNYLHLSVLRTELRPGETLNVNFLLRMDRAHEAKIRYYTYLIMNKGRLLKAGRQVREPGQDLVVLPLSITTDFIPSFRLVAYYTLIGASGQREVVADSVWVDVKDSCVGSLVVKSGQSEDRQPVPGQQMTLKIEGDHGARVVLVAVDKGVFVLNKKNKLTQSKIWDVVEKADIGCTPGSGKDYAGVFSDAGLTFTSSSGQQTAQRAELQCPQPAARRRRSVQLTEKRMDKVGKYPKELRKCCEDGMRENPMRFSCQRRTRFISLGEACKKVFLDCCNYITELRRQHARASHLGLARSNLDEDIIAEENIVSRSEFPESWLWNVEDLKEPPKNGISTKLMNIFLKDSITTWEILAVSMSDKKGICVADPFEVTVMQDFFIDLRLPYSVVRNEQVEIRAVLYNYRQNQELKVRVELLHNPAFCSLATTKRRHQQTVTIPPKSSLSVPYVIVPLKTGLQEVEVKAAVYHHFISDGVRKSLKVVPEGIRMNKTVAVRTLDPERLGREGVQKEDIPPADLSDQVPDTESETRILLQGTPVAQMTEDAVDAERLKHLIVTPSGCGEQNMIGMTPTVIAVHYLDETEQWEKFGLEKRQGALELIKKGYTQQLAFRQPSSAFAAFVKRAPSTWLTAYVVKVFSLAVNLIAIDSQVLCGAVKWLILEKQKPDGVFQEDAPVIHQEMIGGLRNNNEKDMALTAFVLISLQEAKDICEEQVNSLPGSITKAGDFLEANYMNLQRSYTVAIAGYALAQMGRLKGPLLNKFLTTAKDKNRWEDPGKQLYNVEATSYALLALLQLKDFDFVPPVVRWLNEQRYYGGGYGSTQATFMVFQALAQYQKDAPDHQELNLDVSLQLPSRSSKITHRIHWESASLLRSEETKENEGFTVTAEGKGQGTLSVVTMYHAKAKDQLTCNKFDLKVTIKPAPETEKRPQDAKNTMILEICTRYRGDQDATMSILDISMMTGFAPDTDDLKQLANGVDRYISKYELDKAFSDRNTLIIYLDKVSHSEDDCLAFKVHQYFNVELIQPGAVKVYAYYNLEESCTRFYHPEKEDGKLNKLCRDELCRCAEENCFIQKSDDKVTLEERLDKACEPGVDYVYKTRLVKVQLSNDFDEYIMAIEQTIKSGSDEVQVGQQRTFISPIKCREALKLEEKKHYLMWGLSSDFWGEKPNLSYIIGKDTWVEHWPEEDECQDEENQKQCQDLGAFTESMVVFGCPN
Readout label: Kd (nM)

Binder | Measure unit | Numeric value
Clone III (scFv, also called scFv of the invention) scFv: MQLVLTQSPSASASLGASVKLTCTLSSAHKTYTIDWYQQQPEKCPRYLMQLKSEGSYTKGSGIPDRFSGSSSGAERYLTISSLQSEDEADYYCGTEGVGGYVFGGGTKLTVLGGGGGSGGGGSGGGGSGGGGSQVQLVESGGGSVQPGRSLRLSCAASGFTFSNYAMNWVRQAPGKGLEWVAIINVGGGTNYADSVKGRFTISRDNSKNTLYLQMNSLRAEDTASYYCARAVGYHHARLDPWGCGTSVTVSS | nM | 0.151
